Assay Info: Monitoring of ALK-1 homolysis by Overhauser-enhanced MRI (OMRI)
Assay type: physicochemical
Condition Description: cell culture medium (DMEM, 10% FCS); 0.8 mM, culture cell medium, 37° C., OMRI; read-out: experimental t1/2 of homolysis
Attribute Measured: half-life at 0.8 mM

| Compound | Attribute Measured | Value Measured |
| --- | --- | --- |
| CCOP(=O)(OCC)C(N(OC(C)c1cc[n+](C)cc1)C(C)(C)C)C(C)(C)C (stereo not shown) [ALK-1, 4-methylbenzenesulfonate] | half-life at 0.8 mM | ~2.08 h |
